biological target: D(1A) dopamine receptor (Homo sapiens); settings: Compound concentration 10 µM
Description: PDSP Primary Binding target: DRD1 - Compounds are tested at 10 uM concentration, plate are incubated at room temperature in the dark for 90 minutes. Reaction are stopped by vacuum filtration onto 0.3% polyethyleneimine soaked filter mats using Filtermate harvester. Scintilation cocktail is then melted onto microwave-dried filters on a hot plate and the radio activity is counted in Microbia counter.
Answer no (0) if inhibition is under 10%, and yes (1) if it is 10% or more.

Examples with answers:
COc1cc(-n2cnc3cc(-c4ccc(Cl)cc4)sc3c2=O)ccc1OCCN1CCCC1: yes (1)
CN1C[C@H](C(=O)N[C@]2(C)O[C@@]3(O)[C@@H]4CCCN4C(=O)[C@H](Cc4ccccc4)N3C2=O)C[C@@H]2c3cccc4[nH]cc(c34)C[C@H]21: yes (1)

I'd appreciate it if you could say whether CCOC(=O)c1c(C)[nH]c2ccc3c(c12)CN1CCc2cc(OC)ccc2C1O3 (configuration not stated) has inhibition at least equal to 10%.
no (0)

Would you mind doing `CN(C)C(=O)N[C@H]1CC[C@H](CCN2CCN(c3cccc(Cl)c3Cl)CC2)CC1` as well?
yes (1)

Let us now turn to `CCc1ccc(OCc2ccccc2C(=O)Nc2ccc3nc(C)cc(N)c3c2)cc1`
yes (1)

Moving on to `Cc1c(P(=S)(c2ccccc2)c2ccccc2)n2ccccc2[n+]1C/C=C/c1ccccc1`
yes (1)

Do the same for `CCc1cc(C(C)=O)c(O)cc1OCCCCCC(C)(C)c1nn[nH]n1` please
no (0)

Query `CS(=O)(=O)NC[C@H]1CC[C@H](Nc2nc3c(s2)CCSc2ccccc2-3)CC1` next
yes (1)

====

// values below are reported inhibition
target: Alpha-1A adrenergic receptor (Homo sapiens) (UniProt P35348); conditions: Compound concentration 10 µM
Sequence (P35348 whole entry): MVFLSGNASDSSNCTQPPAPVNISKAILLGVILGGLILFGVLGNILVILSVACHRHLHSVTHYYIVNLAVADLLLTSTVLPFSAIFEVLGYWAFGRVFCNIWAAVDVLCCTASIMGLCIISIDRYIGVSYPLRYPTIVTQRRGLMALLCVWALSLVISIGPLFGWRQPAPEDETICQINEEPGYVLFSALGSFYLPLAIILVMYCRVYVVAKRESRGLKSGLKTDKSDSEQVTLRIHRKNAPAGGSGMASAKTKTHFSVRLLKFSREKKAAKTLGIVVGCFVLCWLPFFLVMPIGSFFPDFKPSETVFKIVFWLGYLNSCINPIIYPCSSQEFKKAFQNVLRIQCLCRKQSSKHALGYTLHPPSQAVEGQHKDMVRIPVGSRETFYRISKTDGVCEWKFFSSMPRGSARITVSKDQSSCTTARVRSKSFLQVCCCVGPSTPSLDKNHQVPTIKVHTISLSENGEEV
Description: PDSP Primary Binding target: ADRA1A - Compounds are tested at 10 uM concentration, plate are incubated at room temperature in the dark for 90 minutes. Reaction are stopped by vacuum filtration onto 0.3% polyethyleneimine soaked filter mats using Filtermate harvester. Scintilation cocktail is then melted onto microwave-dried filters on a hot plate and the radio activity is counted in Microbia counter.
Lab book: enter the figure in %, no units written.

Cc1cc(C)cc(C(=O)N(C)[C@H](Cc2ccc(-c3ccccc3)cc2)C(=O)N[C@@H](Cc2c[nH]c3ccccc23)C(=O)O)c1: 22.3

inhibition for CCOC(=O)c1c(C)[nH]c2ccc3c(c12)CN1CCc2cc(OC)ccc2C1O3 (configuration not stated) ?
41.3

Next molecule: OCc1cc(C(O)CNCCCCCCOCCCCc2ccccc2)ccc1O (configuration not stated)
77

Same thing, different molecule: `CCc1cc2c(c(CC)n1)CCC(=O)N2Cc1ccc(-c2ccccc2-c2nnn[nH]2)cc1`
18.5

Param item: `N#Cc1c(N)nc(SCc2csc(-c3ccc(Cl)cc3)n2)c(C#N)c1-c1ccc(OCCO)cc1`
6.84

Consider next the molecule CN1CCCC(n2nc(Cc3ccc(Cl)cc3)c3ccccc3c2=O)CC1 (configuration not stated) in the same way.
87.7

====

Readings of inhibition for the listed molecules
biological target: UniProtKB P08588; conditions: Compound concentration 10 µM
Sequence (P08588 whole entry, looked up): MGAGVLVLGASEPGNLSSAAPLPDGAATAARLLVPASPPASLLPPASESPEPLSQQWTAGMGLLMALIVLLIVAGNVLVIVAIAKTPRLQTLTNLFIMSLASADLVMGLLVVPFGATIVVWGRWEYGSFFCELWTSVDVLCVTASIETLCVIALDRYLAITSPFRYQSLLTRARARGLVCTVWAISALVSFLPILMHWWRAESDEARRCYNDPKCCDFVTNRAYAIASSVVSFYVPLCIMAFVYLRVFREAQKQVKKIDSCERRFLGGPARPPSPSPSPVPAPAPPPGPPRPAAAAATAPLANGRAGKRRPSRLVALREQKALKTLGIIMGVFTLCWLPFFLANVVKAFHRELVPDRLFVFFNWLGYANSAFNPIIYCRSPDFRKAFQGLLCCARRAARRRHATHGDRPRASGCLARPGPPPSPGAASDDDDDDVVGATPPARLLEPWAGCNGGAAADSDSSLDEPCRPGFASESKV
Description: PDSP Primary Binding target: ADRB1 - Compounds are tested at 10 uM concentration, plate are incubated at room temperature in the dark for 90 minutes. Reaction are stopped by vacuum filtration onto 0.3% polyethyleneimine soaked filter mats using Filtermate harvester. Scintilation cocktail is then melted onto microwave-dried filters on a hot plate and the radio activity is counted in Microbia counter.
Return type: number; implicit unit %.

O=C(O)Cn1c(C(=O)Nc2nc(-c3ccccc3Cl)cs2)cc2ccccc21: 30.9
O=C(Cc1ccc(Cl)c(Cl)c1)N1CCCC[C@H]1CN1CCCC1: -3.57
Brc1c(NC2=NCCN2)ccc2nccnc12: 23.8
CC(C)C[C@H](NC(=O)N1CCCCCC1)C(=O)N[C@H](Cc1cn(C)c2ccccc12)C(=O)N[C@H](Cc1ccccn1)C(=O)O: -0.82
N#Cc1c[nH]c2c(C(=O)N3CCN(CCc4ccc(F)cc4)CC3)cccc12: 35.6

Entry `N=C(N)SCCc1c[nH]cn1` has what inhibition?
3.8

Same for `COc1ccc(S(=O)(=O)N2c3ccc(Cl)cc3[C@](O)(c3ccccc3Cl)[C@@H]2C(=O)N2CCC[C@H]2C(N)=O)cc1OC`
28.5

Try `N#Cc1c(O)nc(SCc2cccc(F)c2F)nc1C1CC1` next.
28.6

Try this molecule next: `c1nc(CC2CCNCC2)c[nH]1`
-4.6

`Cc1c(P(=S)(c2ccccc2)c2ccccc2)n2ccccc2[n+]1C/C=C/c1ccccc1` , same question.
36.1

Lookup `CCc1nn2c(C)cc(C)nc2c1Cc1ccc(-c2nnc(C3CCNCC3)o2)cc1`
-6.08

Try this molecule next: `COC(=O)[C@H]1[C@H]2C[C@H]3c4[nH]c5ccccc5c4CCN3C[C@H]2CC[C@@H]1O`
6.36

And the next one, `Cc1ccc(O)c([C@H](CCN(C(C)C)C(C)C)c2ccccc2)c1` ?
-3.65
